- METHOD_NOTES: Antiproliferative activity against human H184B5F5/M10 cells after 72 hrs by XTT assay
- Format: functional, cell-based
- TEST_PARAMETERS: H184B5F5/M10, 72 h
pIC50: −log10 of the molar value.
REPORTED_METRIC: pIC50

COc1ccc(-c2cc3ccccc3nc2/C=C/C(=O)c2ccco2)cc1 ... 5.20
COc1ccc(-c2cc3ccccc3nc2/C=C/C(=O)c2ccc(O)cc2)cc1 ... 5.24
COc1ccc(-c2cc3ccccc3nc2/C=C/C(=O)c2ccc(OC)c(OC)c2)cc1 ... 5.14
COc1ccc(-c2cc3ccccc3nc2/C=C/C(=O)c2ccccn2)cc1 ... 5.38
COc1ccc(-c2cc3ccccc3nc2/C=C/C(=O)c2ccsc2)cc1 ... 5.19
COc1ccc(-c2cc3ccccc3nc2/C=C/C(=O)c2ccc(N)cc2)cc1 ... 5.03
COc1ccc(-c2cc3ccccc3nc2/C=C/C(=O)c2ccc(OC)cc2OC)cc1 ... 5.21

Provenance of the data: ChEMBL document CHEMBL2311509
